Assay: Solubility assessment in solvents (visual)
Type: physicochemical
Settings: 2-propanol, 25 °C, organic solvent or mixture, thermodynamic from solid, 2-Propanol, 5 vol, 25° C.; read-out: Observations from solubility assessment

{"compound": "O=C1C[C@H](c2cc(F)c(F)c(F)c2)CN1Cn1ncnc1Cl [API]", "solubility": "< 200 mg/mL"}

* * *

Assay: Solubility assessment in solvents (visual)
Assay type: physicochemical
Settings: acetone, 25 °C, organic solvent or mixture, thermodynamic from solid, Acetone, 5 vol, 25° C.; read-out: Observations from solubility assessment

{"smiles.input": "O=C1C[C@H](c2cc(F)c(F)c(F)c2)CN1Cn1ncnc1Cl", "solubility": "> 200 mg/mL"}
